Where do the numbers come from? From PubChem BioAssay (NCI).

Tested on: SK-MEL-28 melanoma
Experiment: NCI-60 one-dose screen, 48 h (100 = growth as untreated, 0 = no growth, -100 = all killed)
Details: 10 µM unless noted
Compounds without any hit were thinned out: in the full panel of roughly 83,000, 20% have a hit.
measure: growth (%)

[[record]]
compound = "CN=C1C=CC(=C(c2ccc(N(C)C)cc2)c2ccc(N(C)C)cc2)C=C1"
target_of_assay = "SK-MEL-28 melanoma"
val = -44.9

[[record]]
compound = "CCn1c(Sc2nnc(NC(=O)CSC(=S)N3CCCCC3)s2)nc2c1c(=O)n(C)c(=O)n2C"
target_of_assay = "SK-MEL-28 melanoma"
val = 78.1

[[record]]
compound = "CN(C)S(=O)(=O)n1cnc([C@@H]2[C@@H]3C(=O)OC[C@@H]3C[C@]23N=CN(Cc2ccccc2)C3=O)c1"
target_of_assay = "SK-MEL-28 melanoma"
val = 108

[[record]]
compound = "COc1ccc(-c2c(N)n[nH]c2-c2ccccc2O)cc1OC"
target_of_assay = "SK-MEL-28 melanoma"
val = 103

[[record]]
compound = "O=C1c2ccccc2C2(c3ccc(O)cc3)c3ccccc3Oc3cccc1c32 (centres undefined)"
target_of_assay = "SK-MEL-28 melanoma"
val = 51.9

[[record]]
compound = "NS(=O)(=O)c1cnccc1-n1ccc(=O)c(S(N)(=O)=O)c1"
target_of_assay = "SK-MEL-28 melanoma"
val = 92.5

[[record]]
compound = "COc1ccc(/C=C(\\C#N)n2nnc3ccccc32)cc1"
target_of_assay = "SK-MEL-28 melanoma"
val = 36.2

[[record]]
compound = "CNC=O"
target_of_assay = "SK-MEL-28 melanoma"
val = 96.6

[[record]]
compound = "N#Cc1c(N)nc2c(nnn2-c2cccc(C(F)(F)F)c2)c1N"
target_of_assay = "SK-MEL-28 melanoma"
val = 111

[[record]]
compound = "COc1ccc(NC(=O)c2cccc(-c3cc(=O)c4c(O)c(OC)c(OC)cc4o3)c2)cc1"
target_of_assay = "SK-MEL-28 melanoma"
val = 104

[[record]]
compound = "O=C(Oc1ccc[nH]c1=O)c1cc([N+](=O)[O-])cc([N+](=O)[O-])c1"
target_of_assay = "SK-MEL-28 melanoma"
val = 122

[[record]]
compound = "C=C1C(=O)O[C@H]2[C@H]1CC/C(COC(=O)NCc1ccc(Cn3c(=O)sn(CCCCl)c3=O)cc1)=C\\CC[C@@]1(C)O[C@@H]21"
target_of_assay = "SK-MEL-28 melanoma"
val = 28.1

[[record]]
compound = "Cc1ccc(C)c2c1C(=O)OC2=O"
target_of_assay = "SK-MEL-28 melanoma"
val = 92.9

[[record]]
compound = "O[C@H]1CO[C@H]2[C@@H]1OC[C@@H]2Oc1ccc(Nc2ccnc(Nc3ccc(O[C@H]4CO[C@H]5[C@@H]4OC[C@@H]5O)c(Cl)c3)n2)cc1Cl"
target_of_assay = "SK-MEL-28 melanoma"
val = 20.4

[[record]]
compound = "NS(=O)(=O)c1cn(-c2ncnc3nc[nH]c23)ccc1=O"
target_of_assay = "SK-MEL-28 melanoma"
val = 105

[[record]]
compound = "CCCCOc1nc2ccc(Cl)cc2cc1/C=C/C(=O)/C=C1/CC(c2cc3cc(Cl)ccc3nc2OCCCC)Nc2ccccc2N1 (centres undefined)"
target_of_assay = "SK-MEL-28 melanoma"
val = 105

[[record]]
compound = "Cc1nn(-c2ccccc2)c2c1C(c1ccc([N+](=O)[O-])cc1)C(C#N)=C(N)O2 (centres undefined)"
target_of_assay = "SK-MEL-28 melanoma"
val = 116

[[record]]
compound = "CCCCCOC(=O)c1ccc(NC(=O)CNCC(C)C)cc1"
target_of_assay = "SK-MEL-28 melanoma"
val = 105

[[record]]
compound = "COC(=O)Nc1nc2ccc(C(=O)C3CC3)cc2[nH]1"
target_of_assay = "SK-MEL-28 melanoma"
val = 49

[[record]]
compound = "COc1cc2c(c(OC)c1OC)C(=O)/C(=C/c1cc(C)c(O)c(C)c1)S2"
target_of_assay = "SK-MEL-28 melanoma"
val = 59.3

[[record]]
compound = "CCOc1ccc(-c2nc3ccc(-c4nc5ccc(N6CCN(C)CC6)cc5[nH]4)cc3[nH]2)cc1OCC"
target_of_assay = "SK-MEL-28 melanoma"
val = -27.2

[[record]]
compound = "O=C(O)C1C[C@](O)(c2ccc(F)cc2)[C@@H](c2ccc(F)cc2)O1 (some centres undefined)"
target_of_assay = "SK-MEL-28 melanoma"
val = 129

[[record]]
compound = "N=C(N)c1ccc(-c2ccc(-c3ccc(Cl)cc3Cl)o2)nc1"
target_of_assay = "SK-MEL-28 melanoma"
val = 80.9

[[record]]
compound = "CCOC(=O)c1c(C)nc2c(c1N)/C(=C/c1cc(OC)c(OC)c(OC)c1)C(=O)N2c1ccc(OC)cc1"
target_of_assay = "SK-MEL-28 melanoma"
val = 70.2

[[record]]
compound = "CC(C)c1ccc(C(=O)OC(=O)c2ccc(C(C)C)cc2)cc1"
target_of_assay = "SK-MEL-28 melanoma"
val = 115

[[record]]
compound = "C[C@H]1[C@H](C)CC[C@]2(C(=O)N3CCN(C)CC3)CC[C@]3(C)C(=CC[C@@H]4[C@@]5(C)C/C(=C/c6cccnc6)C(=O)C(C)(C)[C@@H]5CC[C@]43C)[C@H]12"
target_of_assay = "SK-MEL-28 melanoma"
val = -85.7

[[record]]
compound = "CC(=O)Nc1ccc(C(=O)/C=C/c2ccccc2)cc1"
target_of_assay = "SK-MEL-28 melanoma"
val = 93.4

[[record]]
compound = "COc1cc2oc(-c3cccc(C(=O)Nc4ccc(C)cc4)c3)cc(=O)c2c(OC)c1OC"
target_of_assay = "SK-MEL-28 melanoma"
val = 7.12

[[record]]
compound = "C=C1C(=O)O[C@H]2[C@H]1CC/C(COC(=O)/C=C\\C(=O)NCc1ccc(Cn3c(=O)sn(-c4ccc(Cl)cc4)c3=O)cc1)=C\\CC[C@@]1(C)O[C@@H]21"
target_of_assay = "SK-MEL-28 melanoma"
val = -93.5

[[record]]
compound = "C=CC(=O)N[C@@H](Cc1ccc(-c2cc(Cl)cc(Cl)c2)cc1)[C@@H](O)[C@H](O)C(=O)O"
target_of_assay = "SK-MEL-28 melanoma"
val = 107

[[record]]
compound = "CCOC(=O)c1sc2ccc(NCc3nc[nH]c3C)cc2c1NC(=O)c1cc(OC)c(OC)c(OC)c1"
target_of_assay = "SK-MEL-28 melanoma"
val = 83

[[record]]
compound = "CCCCC1COc2cccc3c(SCC(=O)N(C)c4cccc(Cl)c4)cc[n+]1c23 (centres undefined)"
target_of_assay = "SK-MEL-28 melanoma"
val = 106

[[record]]
compound = "COc1cc2nc(Nc3ccc(F)cc3)nc(N)c2cc1OC"
target_of_assay = "SK-MEL-28 melanoma"
val = 105

[[record]]
compound = "N#Cc1c(NC(=O)c2ccccc2I)sc2c1CCCC2"
target_of_assay = "SK-MEL-28 melanoma"
val = 64.1

[[record]]
compound = "NC(=S)N/N=C/C(=O)O"
target_of_assay = "SK-MEL-28 melanoma"
val = 111

[[record]]
compound = "Cc1nc(Nc2ccc(N)cc2)c2ccccc2n1"
target_of_assay = "SK-MEL-28 melanoma"
val = 114

[[record]]
compound = "O=C(O)c1ccccc1C(=O)Nc1ccc(Cl)cc1"
target_of_assay = "SK-MEL-28 melanoma"
val = 96.7

[[record]]
compound = "O=C(NCc1cccnc1)c1cc(-c2csc3c(=O)cc(N4CCOCC4)oc23)cc2c1OCCO2"
target_of_assay = "SK-MEL-28 melanoma"
val = 49

[[record]]
compound = "COc1cc(/C=C/c2nc(Nc3ccc(S(=O)(=O)Nc4cc(C)on4)cc3)c3ccccc3n2)ccc1O"
target_of_assay = "SK-MEL-28 melanoma"
val = 74

